Ref: ChEMBL document CHEMBL1152671

# Tested on: Cryptococcus neoformans
# assay-comment: Antifungal activity against Cryptococcus neoformans after 24 hrs by alamar blue assay
# Type: functional
Calls of active or inactive are those of the source. The calls are words filed in the database; no cut-off is given here.
experimental-endpoint: MIC

1. CCCC(=O)Nc1ccc2[nH]c3c(C4=C[C@@]5(O)CC/C=C\CCCCN6CC[C@@H]4[C@]4(C[C@@H]7/C=C\CCCCN7[C@H]45)C6)nccc3c2c1: inactive
2. CCCCCC(=O)Nc1cccc2c1[nH]c1c(C3=C[C@@]4(O)CC/C=C\CCCCN5CC[C@@H]3[C@]3(C[C@@H]6/C=C\CCCCN6[C@H]34)C5)nccc12: inactive
3. CC(C)C(=O)Nc1ccc2[nH]c3c(C4=C[C@@]5(O)CC/C=C\CCCCN6CC[C@@H]4[C@]4(C[C@@H]7/C=C\CCCCN7[C@H]45)C6)nccc3c2c1: inactive
4. CC(C)(C)C(=O)Nc1ccc2[nH]c3c(C4=C[C@@]5(O)CC/C=C\CCCCN6CC[C@@H]4[C@]4(C[C@@H]7/C=C\CCCCN7[C@H]45)C6)nccc3c2c1: inactive
5. CC(C)C(=O)Nc1cccc2c1[nH]c1c(C3=C[C@@]4(O)CC/C=C\CCCCN5CC[C@@H]3[C@]3(C[C@@H]6/C=C\CCCCN6[C@H]34)C5)nccc12: inactive
6. C[C@@H]1[C@H](O)[C@@H](C)/C=C/C=C/C=C/C=C/C=C/C=C/C=C/[C@H](O[C@@H]2O[C@H](C)[C@@H](O)[C@H](N)[C@@H]2O)C[C@@H]2O[C@](O)(C[C@@H](O)C[C@@H](O)[C@H](O)CC[C@@H](O)C[C@@H](O)CC(=O)O[C@H]1C)C[C@H](O)[C@H]2C(=O)O: 2.71 µM
7. CCCCC(=O)Nc1ccc2[nH]c3c(C4=C[C@@]5(O)CC/C=C\CCCCN6CC[C@@H]4[C@]4(C[C@@H]7/C=C\CCCCN7[C@H]45)C6)nccc3c2c1: inactive
8. CCCCC(=O)Nc1cccc2c1[nH]c1c(C3=C[C@@]4(O)CC/C=C\CCCCN5CC[C@@H]3[C@]3(C[C@@H]6/C=C\CCCCN6[C@H]34)C5)nccc12: inactive
9. CC(C)(C)C(=O)Nc1cccc2c1[nH]c1c(C3=C[C@@]4(O)CC/C=C\CCCCN5CC[C@@H]3[C@]3(C[C@@H]6/C=C\CCCCN6[C@H]34)C5)nccc12: inactive

====

Reported pIC50 is given for each of the following compounds.
# System: Plasmodium falciparum
# assay-comment: Antimalarial activity against chloroquine-resistant Plasmodium falciparum W2 infected in African green monkey (Cercopithecus aethiops) (Cercopithecus aethiops) Vero cells assessed as parasite LDH activity after 72 hrs
# Type: functional, organism-based
pIC50: −log10 of the molar value.
experimental-endpoint: pIC50

1. CC(C)(C)CC(=O)Nc1ccc2[nH]c3c(C4=C[C@@]5(O)CC/C=C\CCCCN6CC[C@@H]4[C@]4(C[C@@H]7/C=C\CCCCN7[C@H]45)C6)nccc3c2c1: 6.52
2. CC(C)(C)C(=O)Nc1cccc2c1[nH]c1c(C3=C[C@@]4(O)CC/C=C\CCCCN5CC[C@@H]3[C@]3(C[C@@H]6/C=C\CCCCN6[C@H]34)C5)nccc12: 6.63
3. CCCCCC(=O)Nc1ccc2[nH]c3c(C4=C[C@@]5(O)CC/C=C\CCCCN6CC[C@@H]4[C@]4(C[C@@H]7/C=C\CCCCN7[C@H]45)C6)nccc3c2c1: 6.10
4. CCC(=O)Nc1ccc2[nH]c3c(C4=C[C@@]5(O)CC/C=C\CCCCN6CC[C@@H]4[C@]4(C[C@@H]7/C=C\CCCCN7[C@H]45)C6)nccc3c2c1: 5.71
5. CCC(=O)Nc1cccc2c1[nH]c1c(C3=C[C@@]4(O)CC/C=C\CCCCN5CC[C@@H]3[C@]3(C[C@@H]6/C=C\CCCCN6[C@H]34)C5)nccc12: 7.06
6. CCCCC(=O)Nc1cccc2c1[nH]c1c(C3=C[C@@]4(O)CC/C=C\CCCCN5CC[C@@H]3[C@]3(C[C@@H]6/C=C\CCCCN6[C@H]34)C5)nccc12: 7.31
7. CC(C)C(=O)Nc1cccc2c1[nH]c1c(C3=C[C@@]4(O)CC/C=C\CCCCN5CC[C@@H]3[C@]3(C[C@@H]6/C=C\CCCCN6[C@H]34)C5)nccc12: 6.69
8. O[C@]12C=C(c3nccc4c3[nH]c3ccccc34)[C@@H]3CCN(CCCC/C=C\CC1)C[C@@]31C[C@@H]3/C=C\CCCCN3[C@H]12: 7.96
9. CCCCCCC(=O)Nc1cccc2c1[nH]c1c(C3=C[C@@]4(O)CC/C=C\CCCCN5CC[C@@H]3[C@]3(C[C@@H]6/C=C\CCCCN6[C@H]34)C5)nccc12: 7.37
10. C[C@@H]1CC[C@H]2[C@@H](C)C(=O)O[C@@H]3O[C@@]4(C)CC[C@@H]1[C@]32OO4: 7.55
11. CCCCCC(=O)Nc1cccc2c1[nH]c1c(C3=C[C@@]4(O)CC/C=C\CCCCN5CC[C@@H]3[C@]3(C[C@@H]6/C=C\CCCCN6[C@H]34)C5)nccc12: 7.19
12. Oc1cccc2c1[nH]c1c(C3=C[C@@]4(O)CC/C=C\CCCCN5CC[C@@H]3[C@]3(C[C@@H]6/C=C\CCCCN6[C@H]34)C5)nccc12: 7.85
13. CCCC(=O)Nc1ccc2[nH]c3c(C4=C[C@@]5(O)CC/C=C\CCCCN6CC[C@@H]4[C@]4(C[C@@H]7/C=C\CCCCN7[C@H]45)C6)nccc3c2c1: 5.72
14. CC(C)C(=O)Nc1ccc2[nH]c3c(C4=C[C@@]5(O)CC/C=C\CCCCN6CC[C@@H]4[C@]4(C[C@@H]7/C=C\CCCCN7[C@H]45)C6)nccc3c2c1: 5.81
15. CCCCCCC(=O)Nc1ccc2[nH]c3c(C4=C[C@@]5(O)CC/C=C\CCCCN6CC[C@@H]4[C@]4(C[C@@H]7/C=C\CCCCN7[C@H]45)C6)nccc3c2c1: 6.12
16. CC(C)(C)CC(=O)Nc1cccc2c1[nH]c1c(C3=C[C@@]4(O)CC/C=C\CCCCN5CC[C@@H]3[C@]3(C[C@@H]6/C=C\CCCCN6[C@H]34)C5)nccc12: 6.90
17. O=C(Nc1cccc2c1[nH]c1c(C3=C[C@@]4(O)CC/C=C\CCCCN5CC[C@@H]3[C@]3(C[C@@H]6/C=C\CCCCN6[C@H]34)C5)nccc12)C1CCCCC1: 6.00
18. CC(=O)Nc1ccc2[nH]c3c(C4=C[C@@]5(O)CC/C=C\CCCCN6CC[C@@H]4[C@]4(C[C@@H]7/C=C\CCCCN7[C@H]45)C6)nccc3c2c1: 5.70
